Values from ChEMBL document CHEMBL3120092

# System: Hepatitis C virus
# Protocol Summary: Antiviral activity against Hepatitis C virus H77 genotype 1a infected in human HuH7 cells assessed as observed antiviral potency after 72 hrs by luciferase reporter gene assay
# Type: functional, organism-based, Hepacivirus hominis
# Measurement Setup: genotype 1a H77, Huh-7, 72 h
Property Name: log10 EC50 (log10 of the value in nM)
Units before log transform: nM; reported quantity: EC50; transform: log10.

Here is how some molecules turned out for log10 EC50.
CC(C)(C#Cc1cc(N(C(=O)[C@H]2CC[C@H](C)CC2)[C@H]2CC[C@H](Oc3ccc(O)nn3)CC2)c(C(=O)O)s1)C(F)(F)F = 1.71
CC(C)N(C(=O)C1CCC(F)(F)CC1)c1cc(C#CC(C)(C)C)sc1C(=O)O = 4.51
CC(C)N(C(=O)[C@@H]1CC[C@@H]2C[C@@H]2CC1)c1cc(C#CC(C)(C)C)sc1C(=O)O = 3.21
CC(C)(C)C#Cc1cc(N(C(=O)[C@H]2CC[C@H](C)CC2)[C@H]2CC[C@H](Oc3ccc4nccn4n3)CC2)c(C(=O)O)s1 = 2.28
CC1CC=C(C(=O)N(c2cc(C#CC(C)(C)C)sc2C(=O)O)C(C)C)CC1 (stereo unspecified) = 2.89

Consider the following items and state reported log10 EC50 for each.
1. C[C@@H](CCO)N(c1cc(C#CC(C)(C)C)sc1C(=O)O)C(=O)[C@H]1CC[C@H](C)CC1
2. CC(C)N(c1cc(C#CC(C)(C)C)sc1C(=O)O)C(=O)[C@H]1CC[C@H](Cl)CC1
3. CC(C)(C)C#Cc1cc(N(C(=O)[C@H]2CC[C@H](C)CC2)[C@H]2CC[C@@H](Oc3ccc(O)nn3)CC2)c(C(=O)O)s1

1.18
2.50
1.38

Consider the following items and state reported log10 EC50 for each.
1. CC(C)(C)C#Cc1cc(N(C(=O)[C@H]2CC[C@H](C)CC2)[C@H]2C[C@@H](Oc3cccnc3)C2)c(C(=O)O)s1
2. CC(C)N(C(=O)C1CCCCCC1)c1cc(C#CC(C)(C)C)sc1C(=O)O
3. CC(C)(C)C#Cc1cc(N(C(=O)[C@H]2CC[C@H](C)CC2)[C@H]2CC[C@H](O)CC2)c(C(=O)O)s1

1: 2.19; 2: 3.31; 3: 1.11
